- experiment: folding enthalpy; higher = less favourable; fluorescence melt of hairpins on a sequencing array, two-state fit
- condition-summary: sodium 0.088 M
reported-property: folding enthalpy (kcal/mol)
I only need the number, in kcal/mol, no unit after it.

{"monomer-sequence": "GTTGTGGCGAAAGCCAAC (((..(((....))))))", "folding enthalpy [kcal/mol]": -18.3}

Name the recorded folding enthalpy for GCCGGCGAAAGCCGTGGC ((((((....)))..))) . -13.1

Name the recorded folding enthalpy for GTGCCAACGAAAGTTCAC (((..(((....)))))) . -4.38

Name the recorded folding enthalpy for GGTGCCGGAAACGGTGCC ((..(((....)))..)) . -41.5

Name the recorded folding enthalpy for GGGCACGAAAGTGGGCCC ((((((....)))..))) . -31.8

Name the recorded folding enthalpy for GATCCAATCGTGGATC ((((((....)))))) . -38.5

Name the recorded folding enthalpy for GGTTAATCGAAAGATACC (((..(((....)))))) . -17.1

Name the recorded folding enthalpy for GATCTCTGACGAGATC ((((((....)))))) . -30.5

Name the recorded folding enthalpy for TCCTCGAAAGAGGA (((((....))))) . -17.6

Name the recorded folding enthalpy for GCGGCCTCCCGC ((((....)))) . -22.3

Name the recorded folding enthalpy for GCACATGGAAACACGTGC ((((.((....)).)))) . -41

Name the recorded folding enthalpy for GTGCTGCGAAAGCAACAC (((.(((....))).))) . -33.8

* * *

- experiment: melting temperature; fluorescence melt of hairpins on a sequencing array, two-state fit, raised by 9.35 °C to match UV melts
- condition-summary: sodium 0.088 M
Just a reminder that ties go to Not satisfied: only Tm strictly below 50 °C counts as Satisfied.

The following sequences have reported results that may help.
{"monomer-sequence": "GCTACCGAAAGGTCGAGC ((((((....)))..)))", "assigned-label": "Satisfied"}
{"monomer-sequence": "GCCCCGCGAAAGCTGGGC ((((.((....)).))))", "assigned-label": "Not satisfied"}
{"monomer-sequence": "GGCTTTGGAAACGAAGCC (((((.(....).)))))", "assigned-label": "Not satisfied"}
{"monomer-sequence": "GCCTTGCGAAAGCACAGC ((..(((....)))..))", "assigned-label": "Satisfied"}
{"monomer-sequence": "GTGCGGCGAAAGCCACAC (((.(((....))).)))", "assigned-label": "Not satisfied"}
{"monomer-sequence": "GCTGTGCGAAAGCTCAGC ((((.((....)).))))", "assigned-label": "Not satisfied"}
{"monomer-sequence": "GATCAATTATTTGATC ((((((....))))))", "assigned-label": "Satisfied"}
{"monomer-sequence": "GACGTGGGAAACCGTGTC (((..((....))..)))", "assigned-label": "Satisfied"}
{"monomer-sequence": "GCAATTACGAAAGTATGC (((..(((....))))))", "assigned-label": "Satisfied"}
{"monomer-sequence": "CGTAACGGAAACGTAACG (((.(((....))).)))", "assigned-label": "Satisfied"}

Determine whether this sequence shows Tm lower than 50 °C (ties excluded): GCGTGAGGAAACCCACGC (((((.(....).))))) Not satisfied

Determine whether this sequence shows Tm lower than 50 °C (ties excluded): GATCGCCCCCGCGATC ((((((....)))))) Not satisfied

* * *

- experiment: melting temperature; fluorescence melt of hairpins on a sequencing array, two-state fit, raised by 9.35 °C to match UV melts
- condition-summary: sodium 0.088 M
Reported values of Tm for individual entries
I only need the number, in °C, no unit after it.

{"monomer-sequence": "GCTGAGCGAAAGCTATGC ((..(((....)))..))", "Tm, °C": 48.6}
{"monomer-sequence": "CGCTACCGGAAACGGGCG (((..(((....))))))", "Tm, °C": 49.4}

Name the recorded Tm for GACGACGAAAGTCGCGTC ((((((....)))..))) . 49.9

* * *

- experiment: melting temperature; fluorescence melt of hairpins on a sequencing array, two-state fit, raised by 9.35 °C to match UV melts
- condition-summary: sodium 0.088 M
reported-property: Tm (°C)
I only need the number, in °C, no unit after it.

Solved cases below.
{"monomer-sequence": "GACTAACGAAAGTTGTC (((.(((....))))))", "uom": "°C", "Tm": 42.4}
{"monomer-sequence": "GCTCTAGGAAACTAGGGC ((.((((....)))).))", "uom": "°C", "Tm": 47.1}
{"monomer-sequence": "GCGGCAGGAAACCACCGC ((((..(....)..))))", "uom": "°C", "Tm": 45.2}
{"monomer-sequence": "GATCATTGATATGATC ((((((....))))))", "uom": "°C", "Tm": 45.5}

Name the recorded Tm for GATCCCGAAAGGGCATC ((((((....))).))) . 42.1

Name the recorded Tm for GCTGTTGGAAACAACAGC (((((((....))))))) . 67.1

Name the recorded Tm for GCCAACGAAAGTTAGGC ((((((....))).))) . 52.8

Name the recorded Tm for GATCTTCTGAAAGATC ((((((....)))))) . 42.1

Name the recorded Tm for GGATATGGAAACGTATCC (((((.(....).))))) . 43.4

* * *

- experiment: folding enthalpy; higher = less favourable; fluorescence melt of hairpins on a sequencing array, two-state fit
- condition-summary: sodium 0.088 M
// label = Met if folding enthalpy is not less than -20 kcal/mol, otherwise Not met

Reported folding enthalpy at or above -20 kcal/mol? GATCGCCCCTGCGATC ((((((....)))))) Not met

Reported folding enthalpy at or above -20 kcal/mol? GCCGTGCGAAAGCAGTGC ((..(((....)))..)) Met

Reported folding enthalpy at or above -20 kcal/mol? GGATTAGAAATAATCC ((((((....)))))) Not met

* * *

- experiment: folding enthalpy; higher = less favourable; fluorescence melt of hairpins on a sequencing array, two-state fit
- condition-summary: sodium 0.088 M
reported-property: folding enthalpy (kcal/mol)
I only need the number, in kcal/mol, no unit after it.

{"monomer-sequence": "GTACTGCGAAAGCATAC (((.(((....))))))", "uom": "kcal/mol", "folding enthalpy": -12}
{"monomer-sequence": "GATCTGGTAGCAGATC ((((((....))))))", "uom": "kcal/mol", "folding enthalpy": -36.6}
{"monomer-sequence": "GGGCTAGGAAACCAGCCC (((((.(....).)))))", "uom": "kcal/mol", "folding enthalpy": -44.8}
{"monomer-sequence": "GGTGGATCGAAAGATACC (((..(((....))))))", "uom": "kcal/mol", "folding enthalpy": -18.4}
{"monomer-sequence": "GGGGGTGGAAACGCCCCC (((((.(....).)))))", "uom": "kcal/mol", "folding enthalpy": -28.9}
{"monomer-sequence": "GATGGGGGAAACCCCGTC ((.((((....)))).))", "uom": "kcal/mol", "folding enthalpy": -24.7}
{"monomer-sequence": "CGGCCGGAAACGGGCCG ((((((....))).)))", "uom": "kcal/mol", "folding enthalpy": -20}
{"monomer-sequence": "GCATTCGCGAAAGCGTGC (((..(((....))))))", "uom": "kcal/mol", "folding enthalpy": -11.8}

Name the recorded folding enthalpy for GCTTTCCGAAAGGACAGC (((.(((....))).))) . -35.7

Name the recorded folding enthalpy for GATCATTCCATGATC ((((((...)))))) . -39.4

Name the recorded folding enthalpy for GGGATGGGAAACCGTTCC ((.(.((....)).).)) . -27

Name the recorded folding enthalpy for GATCCTACTAGGATC ((((((...)))))) . -36.2

Name the recorded folding enthalpy for GATCTTTCCAAAGATC ((((((....)))))) . -32.9

Name the recorded folding enthalpy for GCAACTGCGAAAGCATGC (((..(((....)))))) . -13.5

* * *

- experiment: folding enthalpy; higher = less favourable; fluorescence melt of hairpins on a sequencing array, two-state fit
- condition-summary: sodium 0.088 M
// label = 1 (yes) if folding enthalpy is not less than -30 kcal/mol, otherwise 0 (no)

The following sequences have reported results that may help.
{"monomer-sequence": "GGTAGCGAAAGCTCAACC ((((((....)))..)))", "assigned-label": "1 (yes)"}
{"monomer-sequence": "GCCACGCGAAAGCCTAGC ((.(.((....)).).))", "assigned-label": "1 (yes)"}
{"monomer-sequence": "GAGAGTCCGAAAGGACTC (((..(((....))))))", "assigned-label": "1 (yes)"}
{"monomer-sequence": "GAACCCGAAAGGGATTC ((((((....))).)))", "assigned-label": "1 (yes)"}
{"monomer-sequence": "GATCATATTGATGATC ((((((....))))))", "assigned-label": "0 (no)"}
{"monomer-sequence": "GGTCTCGAAAGAGTAACC ((((((....)))..)))", "assigned-label": "1 (yes)"}

Reported folding enthalpy at or above -30 kcal/mol? GGAATGCGAAAGCACTCC (((.(((....))).))) 1 (yes)

Reported folding enthalpy at or above -30 kcal/mol? GATCTACGAGTAGATC ((((((....)))))) 0 (no)

Reported folding enthalpy at or above -30 kcal/mol? GTAGTGACGAAAGTCTAC (((..(((....)))))) 1 (yes)

Reported folding enthalpy at or above -30 kcal/mol? GTATATCCGAAAGGATAC (((..(((....)))))) 1 (yes)

Reported folding enthalpy at or above -30 kcal/mol? GTGAGAGGAAACTCTCGC (.(((((....))))).) 1 (yes)

Reported folding enthalpy at or above -30 kcal/mol? CGTTGCCGGAAACGGACG (((..(((....)))))) 1 (yes)

Reported folding enthalpy at or above -30 kcal/mol? GTGTACGAAAGTAGACAC ((((((....)))..))) 1 (yes)

Reported folding enthalpy at or above -30 kcal/mol? GATCACCTTTGTGATC ((((((....)))))) 0 (no)
